The measured values listed here are drawn from ChEMBL document CHEMBL1132493.

protocol-description: In vitro neurotoxicity (Maximum Tolerated concentration[MTC]) was measured by quantification of cellular lysis after measurement of LDH activity released from damaged cells
Assay type: toxicity, cell-based
test-settings: mouse, HT-22 cells; read-out: MTC
measurement-label: MNTC

molecule	measurement-label	value-measured
CC1(CO)COc2c(NCCO)ccc(C(=O)c3ccccc3)c2N1 (stereo unspecified)	MNTC	> 250 µM
CC(C)(C)C1COc2c(NCc3ccccc3)ccc(C(=O)c3ccccc3)c2N1 (stereo unspecified)	MNTC	> 250 µM
O=C(c1ccccc1)c1ccc(NCc2ccccc2)c2c1NC1(CCCC1)CO2	MNTC	> 250 µM
CC(C)CCNc1ccc(C(=O)c2ccccc2)c2c1OCC(C)(C)N2	MNTC	10 µM
CC1(CO)COc2c(NC(CO)CO)ccc(C(=O)c3ccccc3)c2N1 (stereo unspecified)	MNTC	> 250 µM
O=C(c1ccccc1)c1ccc(NC(CO)CO)c2c1NC(CO)CO2 (stereo unspecified)	MNTC	> 250 µM

----------
protocol-description: In vitro neurotoxicity (Maximum Tolerated concentration[MTC]) was measured by quantification of cellular lysis after measurement of LDH activity released from damaged cells
Assay type: toxicity, cell-based
test-settings: mouse, HT-22 cells; read-out: MTC

compound	units	result-comparator	MNTC
O=C(c1ccccc1)c1ccc(O)c2c1NC1(CCCC1)CO2	µM	=	25
O=C(C1=CC=C(O)C2(O)OCC(CO)N=C12)c1ccccc1 (stereo not drawn)	µM	=	25
O=C(c1ccccc1)c1ccc(NCc2ccccc2)c2c1NC(c1ccccc1)(c1ccccc1)CO2	µM	>	250

----------
protocol-description: In vitro neurotoxicity (concentration producing 50% toxicity [TC50]) was measured by quantification of cellular lysis after measurement of LDH activity released from damaged cells
Format: cell-based
test-settings: mouse, HT-22 cells; read-out: TC50 (the source's name)
Items are presented alongside their recorded CC50.
measurement-label: CC50

molecule	measurement-label	value-measured
O=C(c1ccccc1)c1ccc(NCc2ccccc2)c2c1NC1(CCCC1)CO2	CC50	> 250 µM
CC(C)(C)C1COc2c(NCCc3ccccc3)ccc(C(=O)c3ccccc3)c2N1 (stereo not given)	CC50	> 250 µM
O=C(C1=CC=C(O)C2(O)OCC3(CCCC3)N=C12)c1ccccc1 (stereo not given)	CC50	> 250 µM
CC(C)CNc1ccc(C(=O)c2ccccc2)c2c1OCC1(CCCC1)N2	CC50	> 250 µM
O=C(c1ccccc1)c1ccc(O)c2c1NC1(CCCC1)CO2	CC50	36.4 µM

----------
Form field: MNTC (one value per entry).
protocol-description: In vitro neurotoxicity (Maximum Tolerated concentration[MTC]) was measured by quantification of cellular lysis after measurement of LDH activity released from damaged cells
Assay type: toxicity, cell-based
test-settings: mouse, HT-22 cells; read-out: MTC
measurement-label: MNTC

compound	value-measured
CC(C)(C)C1COc2c(NCCc3ccccc3)ccc(C(=O)c3ccccc3)c2N1 (stereo not given)	250 µM
CC1(C)COc2c(NC(CO)CO)ccc(C(=O)c3ccccc3)c2N1	> 250 µM
CC(C)CCNc1ccc(C(=O)c2ccccc2)c2c1OCC(c1ccccc1)(c1ccccc1)N2	> 250 µM
O=C(c1ccccc1)c1ccc(NCCO)c2c1NC(CO)(CO)CO2	> 250 µM
CC1(C)COc2c(NCc3ccccc3)ccc(C(=O)c3ccccc3)c2N1	> 250 µM

----------
protocol-description: Ratio of MTC to PC50 in MTT reduction assay; Safety ratio
Assay type: functional
measurement-label: Ratio

compound	measurement-label	result-comparator	value-measured
O=C(c1ccccc1)c1ccc(NCc2ccccc2)c2c1NC1(CCCC1)CO2	Ratio	>	36
O=C(C1=CC=C(O)C2(O)OCC3(CCCC3)N=C12)c1ccccc1 (stereo unspecified)	Ratio	=	1.1
CC(C)(C)C1COC2(O)C(O)=CC=C(C(=O)c3ccccc3)C2=N1 (stereo unspecified)	Ratio	=	1.5
CC(C)CNc1ccc(C(=O)c2ccccc2)c2c1OCC1(CCCC1)N2	Ratio	<	1
CC(C)(C)C1COc2c(NCCc3ccccc3)ccc(C(=O)c3ccccc3)c2N1 (stereo unspecified)	Ratio	=	11
O=C(c1ccccc1)c1ccc(O)c2c1NC1(CCCC1)CO2	Ratio	=	1

----------
protocol-description: In vitro neurotoxicity (Maximum Tolerated concentration[MTC]) was measured by quantification of cellular lysis after measurement of LDH activity released from damaged cells
Format: toxicity, cell-based
test-settings: mouse, HT-22 cells; read-out: MTC

compound	result-comparator	MNTC / µM
O=C(C1=CC=C(O)C2(O)OCC3(CCCC3)N=C12)c1ccccc1 (stereo unspecified)	=	50
CC(C)CCNc1ccc(C(=O)c2ccccc2)c2c1OCC(C(C)(C)C)N2 (stereo unspecified)	=	10
O=C(c1ccccc1)c1ccc(O)c2c1NC(CO)CO2 (stereo unspecified)	=	10
CC(C)CNc1ccc(C(=O)c2ccccc2)c2c1OCC1(CCCC1)N2	>	250
CC1(C)COc2c(NCCO)ccc(C(=O)c3ccccc3)c2N1	=	100
CC(C)(C)C1COc2c(O)ccc(C(=O)c3ccccc3)c2N1 (stereo unspecified)	=	5
